This collection of values is drawn from patent US20110028686A1.

- assay_system: T1, HisKIX (UniProt P45481 586-672)
- T1 construct: range 586-672; the residue numbers fit mouse CBP; also called His-tagged CBP KIX domain; CBP KIX; not shown: amino-terminal hexahistidine tag and linker of pET15b
- T1 sequence (P45481 586-672): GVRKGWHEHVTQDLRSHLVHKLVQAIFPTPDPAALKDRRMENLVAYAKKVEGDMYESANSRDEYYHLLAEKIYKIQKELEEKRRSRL
- measurement_protocol: FP, fluorescein-labelled peptide titrated with HisKIX, 25 C
Square brackets hold non-standard residues; d marks the D form. Ends that are not written are not given here. * marks the point of attachment. Fluorescein(5-NHCOCH2) = O=C(C*)Nc1ccc2c(c1)C(=O)OC21c2ccc(O)cc2Oc2cc(O)ccc21; pS = N[C@@H](COP(=O)(O)O)C(=O)O
quantity: Kd (nM)
Give bare numbers, in nM.

1) H-GASPHTSSGDDAPVRRL[pS]FFDILLDLYLDAPGVC(Fluorescein(5-NHCOCH2))-NH2 (designed binder, not fully specified, also called PPKID3 (phosphorylated)) [PPKID3^P] | 1200

List the reported Kd of each binder below.
1. GASDMTYWGDDAPVRRLSFFYILLDLYLDAPGVC(acetamidofluorescein)-NH2 (designed binder, also called PPKID1 (unphosphorylated)) [PPKID1^U]
2. H-GMSRVTPGGDDAPVRRL[pS]FFYILRDLYLDAPGVC(Fluorescein(5-NHCOCH2))-NH2 (designed binder, not fully specified, also called PPKID2 (phosphorylated)) [PPKID2^P]
3. GISWPTFEGDDAPVRRLSFFYILLDLYLDAPGVC(acetamidofluorescein)-NH2 (designed binder, also called PPKID6 (unphosphorylated)) [PPKID6^U]
4. RRP[pS]YRKILNDLSSDAPGVC(acetamidofluorescein)-NH2 (also called KID-B (phosphorylated); CREB KID residues 130-148) [KID-B^P]

Outgoing:
24100
729
1500
51600

List the reported Kd of each binder below.
1. RRLSFFYILLDLYLDAPGVC(acetamidofluorescein)-NH2 (also called Peptide C (unphosphorylated)) [peptide C^U]
2. GPSQPTYPGDDAPVRRL[pS]FFYILLDLYLDAPGVC(acetamidofluorescein)-NH2 (designed binder, also called PPKID4 (phosphorylated)) [PPKID4^P]
3. GLSPYTEWGDDAPVRRLSFFYILLDLYLDAPGVC(acetamidofluorescein)-NH2 (designed binder) [PPKID7^U]
4. GASDMTYWGDDAPVRRL[pS]FFYILLDLYLDAPGVC(Fluorescein(5-NHCOCH2))-NH2 (designed binder, also called PPKID1 (phosphorylated)) [PPKID1^P]

Outgoing:
21500
515
2300
591

List the reported Kd of each binder below.
1. GASPHTSSGDDAPVRRLSFFDILLDLYLDAPGVC(acetamidofluorescein)-NH2 (designed binder, not fully specified, also called PPKID3 (unphosphorylated)) [PPKID3^U]
2. GMSRVTPGGDDAPVRRLSFFYILRDLYLDAPGVC(acetamidofluorescein)-NH2 (designed binder, not fully specified, also called PPKID2 (unphosphorylated)) [PPKID2^U]
3. TDSQKRREILSRRP[pS]YRKILNDLSSDAPGVC-NH2 (also: C-terminal Cys acetamidofluorescein-labelled in direct assays, unlabelled as competitor, CREB KID residues 119-148 (A and B helices) plus a C-terminal Cys; also called KID-AB (phosphorylated); CREB KID^P) [KID-AB^P]

Outgoing:
6700
12600
562
